# SYSTEM: T1, Human CD137 ECD (human)
# T1 construct: entry includes C-terminal His-tag and biotin acceptor peptide; also called human CD137 extracellular domain; 4-1BB
# T1 sequence (chain, as listed by the source limits assumed): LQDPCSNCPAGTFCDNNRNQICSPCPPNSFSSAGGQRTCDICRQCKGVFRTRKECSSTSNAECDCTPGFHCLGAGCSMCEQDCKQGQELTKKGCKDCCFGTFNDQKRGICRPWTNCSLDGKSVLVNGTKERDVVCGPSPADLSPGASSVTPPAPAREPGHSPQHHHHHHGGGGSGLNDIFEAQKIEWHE
# ASSAY PROCEDURE: Biacore SPR, vs parent H183/L072
ASSAY METRIC: fold change of affinity

BINDER	ASSAY METRIC	ENDPOINT VALUE
H183/L072 VL Q24H (antibody, name in Kabat numbering, V domains shown, Dual-Ig) VH: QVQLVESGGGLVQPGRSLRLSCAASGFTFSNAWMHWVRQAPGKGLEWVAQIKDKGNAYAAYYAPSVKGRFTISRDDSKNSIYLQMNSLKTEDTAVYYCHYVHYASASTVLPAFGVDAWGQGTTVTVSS VL: DIVMTQSPLSLPVTPGEPASISCHASQELVHMNRNTYLHWYQQKPGQAPRLLIYKVSNRFPGVPDRFSGSGSGTDFTLKISRVEAEDVGVYYCAQGTSVPFTFGQGTKLEIK	fold change of affinity	1 fold
H183/L072 VL V51F (antibody, name in Kabat numbering, V domains shown, Dual-Ig) VH: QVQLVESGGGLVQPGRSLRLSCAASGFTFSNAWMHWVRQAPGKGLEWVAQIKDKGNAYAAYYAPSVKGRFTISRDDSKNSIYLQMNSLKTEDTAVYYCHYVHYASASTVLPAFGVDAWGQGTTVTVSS VL: DIVMTQSPLSLPVTPGEPASISCQASQELVHMNRNTYLHWYQQKPGQAPRLLIYKFSNRFPGVPDRFSGSGSGTDFTLKISRVEAEDVGVYYCAQGTSVPFTFGQGTKLEIK	fold change of affinity	0.2 fold
H183/L072 VL M27eH (antibody, name in Kabat numbering, V domains shown, Dual-Ig) VH: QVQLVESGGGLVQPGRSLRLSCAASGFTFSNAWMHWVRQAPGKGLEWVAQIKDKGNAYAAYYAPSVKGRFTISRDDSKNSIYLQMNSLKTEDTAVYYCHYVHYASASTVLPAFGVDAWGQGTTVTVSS VL: DIVMTQSPLSLPVTPGEPASISCQASQELVHHNRNTYLHWYQQKPGQAPRLLIYKVSNRFPGVPDRFSGSGSGTDFTLKISRVEAEDVGVYYCAQGTSVPFTFGQGTKLEIK	fold change of affinity	0.8 fold
